Test system: tumor liver HepG2
Experiment: Tumor cell proliferation assay (alamarBlue)
Assay type: cell-based
Conditions: Homo sapiens, HepG2
Counter-ions that a name gives are not always drawn.
Recorded IC50, one value per entry.
Form field: result (number plus unit)

# Molecule, Target, Value reported
data = [
    ("C=CCc1ccc(O)c(-c2cc(CC=C)ccc2O)c1 [Magnolol, reference compound]", "tumor liver HepG2", "12 µM"),
]

Problem: tumor liver HepG2 / IC50 / C=CCc1ccc(O)c(-c2ccc(OC(CCNC)c3ccccc3)c(CC=C)c2)c1 (centres unmarked) [Example 5, hydrochloride] : value?
Result: 1 µM

###

Assay: Maximum Tolerated Dose after acute administration
Conditions: mouse, in vivo, ip, mice
Where a name gives a salt, the structure may show the parent alone.
Overview of recorded MTD for various compounds
Form entry: value (mg/kg) — number only.

Sample answers from the record:
# Compound, Value reported
data = [
    ("C=CCc1ccc(O)c(-c2cc(CC=C)ccc2OC(CCNC)c2ccccc2)c1.Cl (stereo not drawn)", 25),
    ("C=CCc1ccc(OC)c(-c2cc(CC=C)ccc2OC(CCNC)c2ccccc2)c1.Cl (stereo not drawn)", 50),
]

Problem: I'd like to know its MTD. The compound in question is C=CCc1ccc(O)c(-c2ccc(OC(CCNC)c3ccccc3)c(CC=C)c2)c1 (stereo not drawn) [Example 5, hydrochloride]
Result: 25
